# Assay Procedure: Anticancer human tumor 997537-175-T-J1-PDC patient-derived colon adenocarcinoma cell line growth inhibition [POLQ];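 further: luminescence signal used as a surrogate for viable cells; spheroids exposed to drugs for seven days before readout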
# Experimental Conditions: 997537-175-T-J1-PDC complex spheroid viability, combination with POLQ inhibitors; second compound 0.316 µM; first compound 1 µM; stronger effect = lower value
Consider the following compounds; for each one, report its viability, T/C.
Numbers only, in %.

Worked cases, viability, T/C given:
CCCS(=O)(=O)Nc1ccc(F)c(C(=O)c2c[nH]c3ncc(-c4ccc(Cl)cc4)cc23)c1F + COC1C(OC(N)=O)C(O)C(Oc2ccc3c(O)c(NC(=O)c4ccc(O)c(CC=C(C)C)c4)c(=O)oc3c2C)OC1(C)C = 84.1
O=c1[nH]cc(F)c(=O)[nH]1 + Cc1cccc(N(C)C(=O)C2C(O)CCN2c2nc(C)cc(C(F)(F)F)c2C#N)c1 = 98.4
CNCc1ccc(-c2[nH]c3cc(F)cc4c3c2CCNC4=O)cc1 + Nc1ccc(C#CCN(C(=O)Cc2ncc(C(F)(F)F)cc2C(F)(F)F)c2ccc(F)cc2)nn1 = 90.8
COc1cccc2c1C(=O)c1c(O)c3c(c(O)c1C2=O)CC(O)(C(=O)CO)CC3OC1CC(N)C(O)C(C)O1 (stereo unspecified) + Cc1cccc(N(C)C(=O)C2C(O)CCN2c2nc(C)cc(C(F)(F)F)c2C#N)c1 = 95.4
COc1cc2cc(C(=O)CCC(=O)O)sc2cc1OC + Nc1ccc(C#CCN(C(=O)Cc2ncc(C(F)(F)F)cc2C(F)(F)F)c2ccc(F)cc2)nn1 = 98

Input line: Look up viability, T/C of O=C(c1cc(Cc2n[nH]c(=O)c3ccccc23)ccc1F)N1CCN(C(=O)C2CC2)CC1 + COC1C(OC(N)=O)C(O)C(Oc2ccc3c(O)c(NC(=O)c4ccc(O)c(CC=C(C)C)c4)c(=O)oc3c2C)OC1(C)C and report it.
Output line: 96.8
